system: HL-60; experiment: NCI tumour cell line growth inhibition, 48 h
Calls of active or inactive are those of the source. Cut-off read from the data, not from the text of the source: active = GI50 up to about 1.1 µM and inactive = higher.
Provide the reported GI50 of each item.

Challenge: I have this compound here, "C=C1C(=O)O[C@@H]2C[C@@]3(C)CC(=O)C=C(C)[C@@H]3C[C@H]12" , and I need its recorded GI50.
Response given: 1.71 µM (inactive)

Challenge: What value of measured GI50 is listed for "O=C1C=C(Br)C(=O)C(Br)=C1" ?
Response given: 20.3 µM (inactive)

Challenge: Any idea what its GI50 is? The compound is "Nc1cccc(S(=O)(=O)Nc2nnc(S(N)(=O)=O)s2)c1"
Response given: > 100 µM (inactive)

Challenge: GI50 for "Cc1nn(-c2cc(Cl)ccc2[N+](=O)[O-])c(C)c1Cl" ?
Response given: 91.8 µM (inactive)

Challenge: Bench note: what GI50 did "Cc1[nH]c(=O)nc(NCCNCCO)c1C(=O)Nc1c2ccccc2nc2ccccc12" show?
Response given: > 100 µM (inactive)

Challenge: Quick one: GI50 for "COC(OC)c1cc2c(cc1C(=O)[C@@]13CCC[C@@H]1NC(=O)O3)OCO2" ?
Response given: > 100 µM (inactive)

Challenge: Need GI50, item "CO/N=C/c1cc(OC)c(OC)c(OC)c1"
Response given: > 100 µM (inactive)

Challenge: Can you look up the measured GI50 of "NCC[Se][Se]CCN" for me?
Response given: 1.8 µM (inactive)

Challenge: What value of GI50 has been recorded for this entry: COC(=O)/C(=C/CC(N=C(c1ccccc1)c1ccccc1)C(=O)OC)N=C(c1ccccc1)c1ccccc1 (stereo unspecified)
Response given: > 100 µM (inactive)

Challenge: So what's the measured GI50 for this one? "COc1cc(/C=C2\N=C(c3ccccc3)N(c3nc4c(Cl)cc(Cl)cc4s3)C2=O)ccc1O"
Response given: 16.3 µM (inactive)

Challenge: Would you mind telling me what GI50 value was observed for CC(=O)c1c(C)cc2cccc(OC3OC(CO)C(O)C(O)C3O)c2c1O.CC1OC(O)C(O)C(O)C1O (stereo unspecified) ?
Response given: > 100 µM (inactive)

* * *

system: NCI-H23; assay: NCI tumour cell line growth inhibition, 48 h
Activity calls are given as the source filed them. Rule as the data show it: active = GI50 up to about 1.1 µM and inactive = higher.
measured_metric: GI50

Challenge: GET /values?readout=GI50&item= "CN(C)c1ccc(/C=c2\sc3nnc(-c4cccnc4)n3c2=O)cc1"
Response given: > 100 µM (inactive)

Challenge: Which GI50 is listed for "CN(C)C(=Nc1nc(N(C)C)s[s+]1)N(C)C" ?
Response given: > 100 µM (inactive)

Challenge: State the recorded GI50 for this entry: "S=C(Nc1c2c(nc3ccccc13)CCCC2)Nc1c2c(nc3ccccc13)CCCC2"
Response given: > 100 µM (inactive)

Challenge: # lookup: GI50 of "COc1ccc(C(=O)c2nc3ccccc3nc2N2CCN(c3ccccc3)CC2)cc1OC"
Response given: > 100 µM (inactive)

Challenge: Can you share its GI50? I mean this compound: "CCOc1ccc(N/C(=C(/C(Cl)=C(/Cl)NCCN)[N+](=O)[O-])n2nnc3ccccc32)cc1"
Response given: 32.5 µM (inactive)

Challenge: Can you share its GI50? I mean this compound: CC1(C2CCC3(C)C(C2)C3Sc2ccccc2)OCCO1 (stereo unspecified)
Response given: 22.4 µM (inactive)

Challenge: Requested field: GI50. Item: CCCCCCCCCCCCCCCCCC(=O)NCC(COP(=O)(O)O)OCC (stereo unspecified)
Response given: 14.1 µM (inactive)

Challenge: Suppose we examine the compound "N=C(N)N/N=C/c1c(-c2ccccc2[N+](=O)[O-])nc2sccn12" ; what GI50 value has been reported?
Response given: 29.2 µM (inactive)

Challenge: Record request: GI50 value, item "CCOC(=O)c1ccc(NC(=O)O/N=C(/Cl)CC)cc1"
Response given: 17.4 µM (inactive)

Challenge: Which GI50 value is on record for "C1=CCC[C@@H]2CN3CCCC/C=C\CCCC[C@H]4C[C@H](CN(CCCCCCCC1)C4)[C@H]2CC3" ?
Response given: 13.2 µM (inactive)

Challenge: Give its GI50 value. Item: "Clc1ccc(OCc2nnc(COc3ccc(OCc4nnc(COc5ccc(Cl)cc5Cl)o4)c(Cl)c3)o2)c(Cl)c1"
Response given: 48.1 µM (inactive)

Challenge: Which GI50 value belongs to "O=C(NNC(=S)NC1CCCCC1)C12CC3CC(CC(C3)C1)C2" ?
Response given: > 100 µM (inactive)

Challenge: Which GI50 is reported for this compound? CCCCCCCCCCCCCCCCOC[C@H](COC(c1ccccc1)(c1ccccc1)c1ccccc1)O[PH](=S)OC (stereo partly specified)
Response given: > 100 µM (inactive)

Challenge: Given c1ccc2c(c1)CCN1CCc3c([nH]c4ccccc34)C21 (stereo unspecified) , state its recorded GI50.
Response given: 38.8 µM (inactive)

Challenge: # get_value(readout='GI50', item= "CCOC(=O)[C@H](Cc1ccccc1)NC(=O)c1nc[nH]c1[N+](=O)[O-]" )
Response given: > 100 µM (inactive)

Challenge: May I ask what GI50 has been recorded for "Cn1nc2ccccc2cc1=O" ?
Response given: > 100 µM (inactive)

Challenge: For "CN1CCN(C(=O)CCNC(=O)Cc2ccc(C(=O)c3ccccc3)cc2)CC1" , what is its reported GI50?
Response given: > 100 µM (inactive)

Challenge: Given the entry "O=C1N=C2N=C(c3ccc(Cl)cc3)N(c3ccc(Cl)cc3)N2Sc2ccccc21" , report its measured GI50.
Response given: > 100 µM (inactive)

Challenge: Reported GI50 for "CC(C)/C(Cl)=N\OC(=O)Nc1ccc(F)cc1" : what is it?
Response given: 18.2 µM (inactive)

Challenge: I have this compound here, N#CC1=C(N)OC2=C(CCCc3ccccc32)C1c1ccc([N+](=O)[O-])cc1 (stereo unspecified) , and I need its recorded GI50.
Response given: 15.2 µM (inactive)

Challenge: Recorded GI50 of "Cc1ccc(C(=O)O/N=C2/CCC/C2=C\c2ccccc2)cc1" , please.
Response given: > 100 µM (inactive)

* * *

For each of the compounds below, state its GI50.
tested on: COLO 205; assay: NCI tumour cell line growth inhibition, 48 h
The source made the active and inactive calls. Rule as the data show it: active = GI50 up to about 1.1 µM and inactive = higher.

Challenge: # input compound: "CC(=O)Oc1ccc2c(c1)c1c(=O)oc(C)nc1n2Cc1ccccc1" ; wanted: its GI50
Response given: 24.6 µM (inactive)

Challenge: Entry "O=c1cc(-c2ccccc2)oc2c(-c3cc(Cl)cc4c(=O)cc(-c5ccccc5)oc34)cc(Cl)cc12" has what GI50?
Response given: 31.8 µM (inactive)

Challenge: Any idea what GI50 was measured for Cc1ccccc1OC(C)C(=O)NN1C(=O)CC(=O)N(c2ccc(Cl)cc2)C1=S (stereo not given) ?
Response given: 23.3 µM (inactive)

Challenge: Quick one: GI50 of "c1ccc(CCN2CCN=C2Cc2ccccc2)cc1" ?
Response given: > 100 µM (inactive)

Challenge: Please report the recorded GI50 for CCCCCCCCCCCCCCCCCC(=O)NCC(COP(=O)(O)O)OCC (stereo not given) .
Response given: > 100 µM (inactive)

Challenge: Recorded GI50 of "C=CCCOC(=O)CO[N+](=O)[O-]" , please.
Response given: > 100 µM (inactive)

Challenge: Dear colleague, I am looking for the recorded GI50 of the following compound: "Cc1ccc(/C=C/C(=N/NC(=O)N/N=C(/C=C/c2ccc(C)cc2)C(C)(C)CN2CCCCC2)C(C)(C)CN2CCCCC2)cc1"
Response given: 1.53 µM (inactive)

Challenge: Requested field: GI50. Item: COc1nc(N)c(/N=C/C(OC(C)=O)C(OC(C)=O)C(COC(C)=O)OC(C)=O)c(=O)n1C (stereo not given)
Response given: > 100 µM (inactive)

Challenge: Give the measured GI50 of "Nc1nc(N)c(CCCCc2ccccc2)c(C=O)n1" .
Response given: 31.8 µM (inactive)

Challenge: Given the entry "CN1CCC(C(=O)NNc2ccccc2)CC1" , report its measured GI50.
Response given: 3.08 µM (inactive)

* * *

test system: MOLT-4; assay: NCI tumour cell line growth inhibition, 48 h
The source made the active and inactive calls. Cut-off read from the data, not from the text of the source: active = GI50 up to about 1.1 µM and inactive = higher.
measured_metric: GI50

Challenge: // lookup GI50 | system=MOLT-4 | key= COC(=O)c1ccc(C(=O)NC(Cc2ccc(Oc3cc(CC(NC(=O)c4ccccc4C(=O)OC)C(=O)OC)ccc3OC)cc2)C(=O)OC)cc1 (stereo not given)
Response given: > 100 µM (inactive)

Challenge: Write down the reported GI50 of "O=[N+]([O-])c1cccc(/N=C2\c3ccccc3CN2c2cccc([N+](=O)[O-])c2)c1" , test system: MOLT-4.
Response given: > 100 µM (inactive)

Challenge: // map "CCCCCCCCCCCCNC1(C)CNCCCNCCNCCCNC1" to recorded GI50 (system: MOLT-4)
Response given: 1.43 µM (inactive)

Challenge: Form: Entry = "Cc1c(C(C)C)cc(OCCO)cc1C(C)C" | System = MOLT-4 | GI50 = ____
Response given: 34.1 µM (inactive)

Challenge: Write down the reported GI50 of "CNc1nc(N)nc(Nc2ccc(I)cc2)c1N=O" , test system: MOLT-4.
Response given: 78.5 µM (inactive)

Challenge: Write down the reported GI50 of CCCCCCCCCCCCCCCCCC(=O)NCC(COP(=O)(O)O)OCC (stereo not given) , test system: MOLT-4.
Response given: > 100 µM (inactive)

Challenge: Could you share what GI50 was measured for "COC(=O)[C@@]12CCCC(=O)[C@@H]1[C@H]1CCCC[C@H]12" , tested on MOLT-4?
Response given: 30.6 µM (inactive)

Challenge: Please state recorded GI50 (tested on MOLT-4) of "O=C(NCc1ccccc1)c1c(O)nc2ccccc2c1O"
Response given: > 100 µM (inactive)

Challenge: API: value(readout=GI50, system=MOLT-4) for record "C=CC/C(C(=O)OC)=C(/C(=O)OC)N(CCC)CCC"
Response given: 61.8 µM (inactive)

Challenge: API: value(readout=GI50, system=MOLT-4) for record C[C@@H]1C[C@H]2[C@@H]3CCC4=CC(=O)C=C[C@]4(C)[C@@]3(F)[C@@H](O)C[C@]2(C)[C@@]1(O)C(=O)CO [DEXAMETHASONE]
Response given: 95.1 µM (inactive)

Challenge: What is its GI50 for MOLT-4? Entry: "COC(=O)CCc1ccc2c(c1)CC1(Cc3ccccc3C1)C2"
Response given: 77.1 µM (inactive)

Challenge: What is its GI50 for MOLT-4? Entry: "O=C1N=C2N=C(c3ccc(Cl)cc3)N(c3ccc(Cl)cc3)N2Sc2ccccc21"
Response given: > 100 µM (inactive)

Challenge: Look up GI50 with MOLT-4 for this compound: "CC(=O)Oc1ccc(CO)cc1OC(C)=O"
Response given: > 100 µM (inactive)

Challenge: So what GI50 did CCOc1ccc(NC(=O)CC2Sc3ccccc3NC2=O)cc1 (stereo not given) get with MOLT-4?
Response given: > 100 µM (inactive)

Challenge: What measured GI50 is associated with COC1CC(CC2CCC(C)C(C(C)C(=O)O)O2)OC2(OC(C)(C3CCC(C)(C4OC(C5OC(O)(CO)C(C)CC5C)CC4C)O3)CC2C)C1C (stereo not given) on MOLT-4?
Response given: 0.347 µM (active)

Challenge: Return GI50 measured with MOLT-4 given this compound: CC1=CN(c2ccccc2)S2=C1c1sc3c(c1N2c1ccc(Br)cc1)CCCC3 (stereo not given)
Response given: > 100 µM (inactive)

Challenge: GET /values?readout=GI50&system=MOLT-4&item= CC(=O)O[C@H]1CC[C@H]2[C@@H]3CCC4=C(C(=O)C=CC4(C)OC(C)=O)[C@H]3CC[C@]12C (stereo not given in full)
Response given: 33.9 µM (inactive)

Challenge: Which measured GI50 belongs to "CCOC(=O)Cn1c(=O)c2nc(SC)sc2n(-c2ccccc2)c1=O" , tested on MOLT-4?
Response given: > 100 µM (inactive)

Challenge: Lookup: GI50 / MOLT-4 / "C=C1C(=O)O[C@@H]2C[C@@]3(C)CC(=O)C=C(C)[C@@H]3C[C@H]12"
Response given: 3.04 µM (inactive)

Challenge: Give MOLT-4 GI50 for "O=c1[nH]nc(Cc2ccccc2)n1CCO"
Response given: > 100 µM (inactive)
